- Test system: NCI-H1666
- MEASUREMENT DESCRIPTION: relative viability (nuclei count vs DMSO), 5 days (fraction); higher = more cells survive
- CONDITION: first compound 8 µM
The entries below come with measured relative viability values attached.
Response field accepts a number only; no unit should be typed.

These recorded examples may help you get a feel for the data.
compound O=c1cc(-c2cccc3c2Sc2ccccc2S3)oc(N2CCOCC2)c1 + O=C(c1cc(Cc2n[nH]c(=O)c3ccccc23)ccc1F)N1CCN(C(=O)C2CC2)CC1 [Olaparib] (partner 8 µM) , relative viability observed: 0.671

Consider O=c1cc(-c2cccc3c2Sc2ccccc2S3)oc(N2CCOCC2)c1 + Nc1ncn([C@H]2C[C@H](O)[C@@H](CO)O2)c(=O)n1 [Decitabine] (partner 2 µM) . Its measured relative viability is 0.762

relative viability for O=c1cc(-c2cccc3c2Sc2ccccc2S3)oc(N2CCOCC2)c1 + C[C@@H](Oc1cc(-c2cnn(C3CCNCC3)c2)cnc1N)c1c(Cl)ccc(F)c1Cl [Crizotinib] (partner 1 µM) is 0.857

Lab note: measured relative viability of O=c1cc(-c2cccc3c2Sc2ccccc2S3)oc(N2CCOCC2)c1 + NC(=O)Nc1cc(-c2cccc(F)c2)sc1C(=O)N[C@H]1CCCNC1 [AZD7762] (partner 0.2 µM) was 0.85

Form: compound = O=c1cc(-c2cccc3c2Sc2ccccc2S3)oc(N2CCOCC2)c1 + Cc1nc(Nc2ncc(C(=O)Nc3c(C)cccc3Cl)s2)cc(N2CCN(CCO)CC2)n1 [Dasatinib] (partner 0.075 µM) ; relative viability = 0.789

So, O=c1cc(-c2cccc3c2Sc2ccccc2S3)oc(N2CCOCC2)c1 + N=C(N)NC(=N)NCCc1ccccc1 [Phenformin] (partner 250 µM) ? Its relative viability was 0.585

More entries:
Please fill in: relative viability reported for O=c1cc(-c2cccc3c2Sc2ccccc2S3)oc(N2CCOCC2)c1 + COc1cc2c(Oc3ccc(NC(=O)C4(C(=O)Nc5ccc(F)cc5)CC4)cc3F)ccnc2cc1OCCCN1CCOCC1 [Foretinib] (partner 0.25 µM) = 0.908
